Test: Displacement of 3[H]BTX from rat cerebral cortex sodium channel assessed as inhibition constant
Type: tissue-based
observable: Ki (nM)

{"columns": ["compound", "result-value"],
 "data": [
  ["CO[C@@H](C)CN1CC[C@@]2(C)c3cccc(O)c3C[C@@H]1C2(C)C", 789],
  ["C[C@@H](CN1CC[C@@]2(C)c3cccc(O)c3C[C@@H]1C2(C)C)OCc1ccccc1 [CROBENETINE]", 43]
]}

---

Target: Sigma intracellular receptor 2 (Homo sapiens)
Assay: Displacement of [3H]DTG from sigma 2 receptor (unknown origin) assessed as inhibition constant in presence of haloperidol measured for 120 mins by scintillation counting analysis
observable: Ki (nM)

{"columns": ["smiles-notation", "result-value"],
 "data": [
  ["CC(C)=CCN1CC[C@@]2(C)c3cc(F)ccc3C[C@H]1[C@H]2C", 154],
  ["C[C@@H]1[C@@H]2Cc3ccc(N)cc3[C@]1(C)CCN2Cc1ccccc1", 832],
  ["C[C@@H]1[C@@H]2Cc3ccc(N(C)C)cc3[C@]1(C)CCN2Cc1ccccc1", 258]
]}

---

Molecular target: Sigma intracellular receptor 2 (Homo sapiens, UniProt Q5BJF2)
Sequence (Q5BJF2 whole entry): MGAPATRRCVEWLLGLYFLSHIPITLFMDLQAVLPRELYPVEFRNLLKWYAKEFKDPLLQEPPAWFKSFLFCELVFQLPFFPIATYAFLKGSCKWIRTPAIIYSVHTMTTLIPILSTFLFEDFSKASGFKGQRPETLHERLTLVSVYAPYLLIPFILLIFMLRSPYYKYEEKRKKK
Assay: Displacement of [3H]DTG from sigma 2 receptor (unknown origin) assessed as inhibition constant incubated for 120 mins in presence of (+)-SKF10047 by radioligand binding assay

{"columns": ["smiles-notation", "Ki / nM"],
 "data": [
  ["C[C@@H]1[C@@H]2Cc3ccc(O)cc3[C@]1(C)CCN2CCN1CCCC1", 260],
  ["C[C@@H]1[C@@H]2Cc3ccc(O)cc3[C@]1(C)CCN2CCN1CCOCC1", 300],
  ["C[C@@H]1[C@@H]2Cc3ccc(O)cc3[C@]1(C)CCN2CCN1CCCCC1", 114],
  ["C[C@@H]1[C@@H]2Cc3ccc(O)cc3[C@]1(C)CCN2CCN(C)c1ccccc1", 124],
  ["C[C@@H]1[C@@H]2Cc3ccc(O)cc3[C@]1(C)CCN2CCN1CCCCCC1", 151],
  ["C[C@@H]1[C@@H]2Cc3ccc(O)cc3[C@]1(C)CCN2CCNc1ccccc1", 111]
]}

---

Target: Sigma non-opioid intracellular receptor 1 (Cavia porcellus, UniProt Q60492)
Sequence (Q60492 whole entry): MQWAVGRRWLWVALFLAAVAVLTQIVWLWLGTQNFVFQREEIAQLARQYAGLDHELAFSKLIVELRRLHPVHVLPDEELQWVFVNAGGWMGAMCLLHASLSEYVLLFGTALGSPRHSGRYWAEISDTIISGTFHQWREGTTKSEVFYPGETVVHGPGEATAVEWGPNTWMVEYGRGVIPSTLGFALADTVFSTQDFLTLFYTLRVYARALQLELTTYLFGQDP
Experiment: Displacement of [3H]-(+)-pentazocine from sigma1 receptor in guinea pig brain membrane assessed as inhibition constant
Format: cell membranes
Each item that follows carries a reported Ki.
observable: Ki (nM)

{"columns": ["smiles-notation", "observable", "result-value"],
 "data": [
  ["C[C@@H]1[C@@H]2Cc3ccc(O)c(Cl)c3[C@]1(C)CCN2Cc1ccccc1", "Ki", 1.72],
  ["C[C@@H]1[C@@H]2Cc3ccc(O)c(Br)c3[C@]1(C)CCN2Cc1ccccc1", "Ki", 1.75],
  ["CC(C)=CCN1CC[C@@]2(C)c3c(ccc(O)c3Cl)C[C@H]1[C@H]2C", "Ki", 2.62],
  ["CC(C)=CCN1CC[C@@]2(C)c3c(ccc(O)c3Br)C[C@H]1[C@H]2C", "Ki", 2.49],
  ["C[C@@H]1[C@@H]2Cc3cc(I)c(O)cc3[C@]1(C)CCN2Cc1ccccc1", "Ki", 231]
]}

---

Test: Toxicity in mouse assessed as induction of lethality
Conditions: in vivo

{"columns": ["smiles-notation", "LD50 (mg/kg)"],
 "data": [
  ["CO[C@H](C)CN1CC[C@@]2(C)c3ccc(O)cc3C[C@@H]1C2(C)C", 0.4]
]}

---

Each item that follows carries a reported Ki.
Target: Delta-type opioid receptor (Homo sapiens, UniProt P41143)
Sequence (P41143 whole entry): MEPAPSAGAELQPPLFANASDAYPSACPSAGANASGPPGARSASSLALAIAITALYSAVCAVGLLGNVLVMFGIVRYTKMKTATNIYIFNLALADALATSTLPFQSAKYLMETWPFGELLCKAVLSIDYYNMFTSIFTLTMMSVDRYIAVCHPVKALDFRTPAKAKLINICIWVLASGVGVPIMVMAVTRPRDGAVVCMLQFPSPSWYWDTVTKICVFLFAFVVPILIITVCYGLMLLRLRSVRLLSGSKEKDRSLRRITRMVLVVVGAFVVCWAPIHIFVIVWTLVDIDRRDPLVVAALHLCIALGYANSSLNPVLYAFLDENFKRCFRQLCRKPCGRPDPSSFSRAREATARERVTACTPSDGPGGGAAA
Test: Displacement of [3H]-Diprenorphine from DOR receptor (unknown origin) assessed as inhibition constant

{"columns": ["compound", "Ki"],
 "data": [
  ["C=CCN1CC[C@@]2(C)c3cc(O)ccc3C[C@H]1[C@H]2C", "> 1 µM"],
  ["COC(=O)[C@@]1(c2ccccc2)C[C@H]1CN1CC[C@@]2(C)c3cc(O)ccc3C[C@H]1[C@H]2C", "> 1 µM"],
  ["COC(=O)[C@]1(c2ccccc2)C[C@@H]1CN1CC[C@]2(C)c3cc(O)ccc3C[C@@H]1[C@@H]2C", "> 25 µM"],
  ["COC(=O)C1(c2ccccc2)CC1CN1CC[C@@]2(C)c3cc(O)ccc3C[C@H]1[C@H]2C (mixture of isomers)", "> 1 µM"],
  ["COC(=O)[C@]1(c2ccc(Cl)cc2)C[C@@H]1CN1CC[C@]2(C)c3cc(O)ccc3C[C@@H]1[C@@H]2C", "> 25 µM"],
  ["COC(=O)[C@]1(c2ccccc2)C[C@@H]1CN1CC[C@@]2(C)c3cc(O)ccc3C[C@H]1[C@H]2C", "> 1 µM"]
]}

---

Molecular target: Sigma intracellular receptor 2 (Rattus norvegicus, UniProt Q5U3Y7)
Assay: Displacement of [3H]DTG from sigma 2 receptor in rat liver membranes assessed as inhibition constant presence of dextrallorphan
Assay type: cell membranes, Membrane
observable: log10 Ki (log10 of the value in µM)

{"columns": ["smiles-notation", "result-value"],
 "data": [
  ["C[C@@H]1[C@@H]2Cc3cc(I)c(O)cc3[C@]1(C)CCN2Cc1ccccc1", -0.22],
  ["C[C@@H]1[C@@H]2Cc3ccc(O)c(Br)c3[C@]1(C)CCN2Cc1ccccc1", -0.46],
  ["CC(C)=CCN1CC[C@@]2(C)c3c(ccc(O)c3Br)C[C@H]1[C@H]2C", -0.55],
  ["C[C@@H]1[C@@H]2Cc3ccc(O)c(Cl)c3[C@]1(C)CCN2Cc1ccccc1", -0.12],
  ["CC(C)=CCN1CC[C@@]2(C)c3c(ccc(O)c3Cl)C[C@H]1[C@H]2C", 0.70]
]}

---

Each item that follows carries a reported pKi.
Target: Sigma intracellular receptor 2 (Rattus norvegicus)
Sequence (Q5U3Y7 whole entry): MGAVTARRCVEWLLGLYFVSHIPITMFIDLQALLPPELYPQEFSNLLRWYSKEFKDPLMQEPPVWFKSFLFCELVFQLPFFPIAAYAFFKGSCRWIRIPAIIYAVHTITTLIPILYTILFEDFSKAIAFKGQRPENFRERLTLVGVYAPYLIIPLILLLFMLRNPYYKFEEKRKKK
Assay: Displacement of [3H]DTG from sigma 2 receptor in rat liver membranes assessed as inhibition constant presence of haloperidol by scintillation counting analysis
Type: cell membranes, Membrane
pKi: −log10 of the molar value.
observable: pKi

{"columns": ["smiles-notation", "observable", "result-value"],
 "data": [
  ["CC[C@@H]1[C@@H]2CCN(Cc3ccccc3)[C@@H]1Cc1ccccc12", "pKi", 6.94],
  ["CC(C)[C@@H]1[C@@H]2CCN(Cc3ccccc3)[C@@H]1Cc1ccccc12", "pKi", 6.88],
  ["C[C@@H]1[C@@H]2CCN(Cc3ccccc3)[C@@H]1Cc1ccccc12", "pKi", 6.88]
]}

---

Target: Sigma non-opioid intracellular receptor 1 (Homo sapiens)
Sequence (Q99720 whole entry): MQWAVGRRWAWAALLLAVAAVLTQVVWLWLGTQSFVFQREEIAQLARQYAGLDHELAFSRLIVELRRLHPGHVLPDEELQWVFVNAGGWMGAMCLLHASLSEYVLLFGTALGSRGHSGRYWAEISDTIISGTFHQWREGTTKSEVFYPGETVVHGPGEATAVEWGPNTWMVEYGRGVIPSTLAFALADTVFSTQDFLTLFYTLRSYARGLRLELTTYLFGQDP
Experiment: Displacement of [3H]-(+)-pentazocine from sigma1 receptor (unknown origin) assessed as inhibition constant
observable: Ki (nM)

{"columns": ["compound", "result-value"],
 "data": [
  ["C[C@@H]1[C@@H]2Cc3ccccc3[C@]1(C)CCN2CCN1CCCC1", 34],
  ["COC(=O)[C@@]1(c2ccccc2)C[C@H]1CN1CC[C@@]2(C)c3cc(O)ccc3C[C@H]1[C@H]2C", 75],
  ["COC(=O)[C@]1(c2ccc(Cl)cc2)C[C@@H]1CN1CC[C@]2(C)c3cc(O)ccc3C[C@@H]1[C@@H]2C", 1050],
  ["COC(=O)C1(c2ccccc2)CC1CN1CC[C@@]2(C)c3cc(O)ccc3C[C@H]1[C@H]2C (mixture of isomers)", 1380]
]}
